Cited source for all entries: the supplement of paper PMC10567573

B1: KRT34 (parent)
chain: PTVDLNQVLNETRSQYEALVETNR

# Variants of: B1
# Experimental details: protein stability index of a GFP-peptide fusion (GPS, HEK-293T) (PSI 1-6); higher = more stable;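 further: lentivirally expressed fusions sorted by FACS into six bins by GFP to DsRed ratio, PSI derived from sequencing read proportions per bin multiplied by bin number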
# Condition set: c terminus: a fixed tail appended
Experimental endpoint: protein stability index
The answer should be a number; do not append a unit.

Previously resolved entries follow.
1) E11N :: 3.69
2) R24C :: 2.56
3) S14K :: 2.47

Input P1Y . Output protein stability index: 2.84

Input T22G . Output protein stability index: 4.41

Input E17T . Output protein stability index: 4.23

Input D4K . Output protein stability index: 3.94

Input D4L . Output protein stability index: 3.56

Input N23D . Output protein stability index: 5.04

Input R24D . Output protein stability index: 4.95

Input Q15F . Output protein stability index: 2.82

Input L9D . Output protein stability index: 5.55

Input E21F . Output protein stability index: 2.74
